The reported numbers originate from patent US12421212B2.

# Assay Target: IL-17A/A (Homo sapiens)
# Construct: purchased Genscript Z03228
# Sequence (Q16552 24-155): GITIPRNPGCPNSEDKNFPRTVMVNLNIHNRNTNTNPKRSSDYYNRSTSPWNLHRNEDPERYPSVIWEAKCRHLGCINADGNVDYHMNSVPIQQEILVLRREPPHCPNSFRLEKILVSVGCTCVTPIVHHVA
# Assay Remarks: IL-17A/A HEK-Blue Cell Assay
# Type: cell-based
pIC50: −log10 of the molar value.
Observed Property: pIC50

- CCc1nonc1C(=O)N[C@H](C(=O)Nc1ccc([C@H](C)[C@@H](NC(=O)CF)C(=O)N2CCN(C)[C@@H](C)C2)cc1F)[C@H]1CC[C@H](C)CC1: 7.00 to 8.00

###

# Assay Target: IL-17A/A (Homo sapiens)
# Construct: purchased Genscript Z03228
# Assay Remarks: IL-17A/A HEK-Blue Cell Assay
# Assay type: cell-based
# Conditions Used: HEK-Blue IL-17A reporter cell line, SEAP readout at A630, 20 hours incubation with IL-17A/A; top concentration 10 uM, 1 uM or 0.3 uM; read-out: IL-17A/A inhibition (pIC50) (converted)
Observed Property: IC50

• CCC(=O)N[C@@H](C(=O)N1CCN(C)CC1)[C@@H](C)c1ccc(NC(=O)[C@@H](NC(=O)C(F)(F)c2ccc3[nH]ncc3c2)C2CCCCC2)c(F)c1 = 10 to 100 nM
• CC(C)n1nccc1C(=O)N[C@H](C(=O)Nc1ccc([C@H](C)[C@@H](NC(=O)c2ccnn2C2CC2)C(=O)N2CCN(C)CC2)cc1F)[C@H]1CC[C@H](C)CC1 = < 10 nM
• CCn1nccc1C(=O)N[C@H](C(=O)Nc1ccc([C@H](C)[C@@H](NC(=O)c2cnns2)C(=O)N2CCOCC2)cc1F)[C@H]1CC[C@H](C)CC1 = 10 to 100 nM
